Reported MIC by item:
Test system: P. aeruginosa H1030 (MDR)
Test: microbe, parasite or virus in culture
Details: P. aeruginosa H1030 (MDR)
Numbered stars: 1 amine (or outer) side, 2 acyl side, 3 side chain; on linkers, the order of the positions; unused ones are H or OH. Square brackets hold non-standard residues; d marks the D form. Peptide text beside a SMILES is read from it. X1 = CC(C)[C@H](C)N(CC(=O)[*:2])[*:1]; Nspe = C[C@H](NCC(=O)O)c1ccccc1; Nphe = O=C(O)CNCc1ccccc1; Nlys = NCCCCNCC(=O)O
Kindly answer with a numeric value in µg/mL, unit omitted.

The examples below pair each entry with its known result.
molecule="C[C@@H](c1ccccc1)N(CC(N)=O)C(=O)CN(C(=O)CN(CCCCN)C(=O)CN(C(=O)CN(C(=O)CN(CCCCN)C(=O)CN(C(=O)CN(C(=O)CN(CCCCN)C(=O)[C@@H]1CCCN1C(=O)CN(C(=O)CNCCCCN)[C@@H](C)c1ccccc1)[C@@H](C)c1ccccc1)[C@@H](C)c1ccccc1)[C@@H](C)c1ccccc1)[C@@H](C)c1ccccc1)[C@@H](C)c1ccccc1 [Peptoid 1-Pro3, H-NLys-Nspe-L-Pro-(NLys-Nspe-Nspe)3-NH2] (H-[Nlys][Nspe]P[Nlys][Nspe][Nspe][Nlys][Nspe][Nspe][Nlys][Nspe][Nspe]-NH2)" observation_type=MIC obs_value=16
molecule="CC(C)[C@H](C)N(CC(=O)N(CC(=O)N(CCCCN)CC(=O)N(CC(=O)N(CC(=O)N(CCCCN)CC(=O)N(CC(=O)N(CC(=O)N(CCCCN)CC(=O)N(CC(=O)N(CC(N)=O)[C@@H](C)c1ccccc1)[C@@H](C)C(C)C)[C@@H](C)c1ccccc1)[C@@H](C)C(C)C)[C@@H](C)c1ccccc1)[C@@H](C)C(C)C)[C@@H](C)c1ccccc1)C(=O)CNCCCCN [1-Nsdp2.5.8.11, H-(NLys-Nsdp-Nspe)4-NH2] (H-[Nlys][X1][Nspe][Nlys][X1][Nspe][Nlys][X1][Nspe][Nlys][X1][Nspe]-NH2)" observation_type=MIC obs_value=16
molecule="C[C@@H](c1ccccc1)N(CC(=O)N(CC(=O)N(CCCCN)CC(=O)N(CC(=O)N(CC(=O)N(CCCCN)CC(=O)N(CC(=O)N(CC(=O)N(CCCCN)CC(=O)N(CC(=O)N(CC(N)=O)Cc1ccccc1)Cc1ccccc1)Cc1ccccc1)Cc1ccccc1)Cc1ccccc1)Cc1ccccc1)Cc1ccccc1)C(=O)CNCCCCN [Peptoid 1ach-Nspe2, H-(NLys-Nspe-Npm)- (NLys-Npm-Npm)3-NH2] (H-[Nlys][Nspe][Nphe][Nlys][Nphe][Nphe][Nlys][Nphe][Nphe][Nlys][Nphe][Nphe]-NH2)" observation_type=MIC obs_value=32

In the following, a different molecule is considered.
Prompt: Look up MIC for this molecule: C[C@@H](c1ccccc1)N(CC(N)=O)C(=O)CN(CCCCN)C(=O)CN(CCCCN)C(=O)CN(C(=O)CN(C(=O)CN(CCCCN)C(=O)CN(C(=O)CN(CCCCN)C(=O)CN(CCCCN)C(=O)CN(C(=O)CN(C(=O)CNCCCCN)[C@@H](C)c1ccccc1)[C@@H](C)c1ccccc1)[C@@H](C)c1ccccc1)[C@@H](C)c1ccccc1)[C@@H](C)c1ccccc1 [1-NLys5,11, H-(NLys-Nspe-Nspe-NLys-NLys-Nspe)2-NH2] (H-[Nlys][Nspe][Nspe][Nlys][Nlys][Nspe][Nlys][Nspe][Nspe][Nlys][Nlys][Nspe]-NH2)
Completion: 64
